# Tested on: HOP-92 NSCLC
# assay remarks: NCI-60 one-dose screen, 48 h (100 = growth as untreated, 0 = no growth, -100 = all killed)
# reported conditions: 10 µM unless noted
The panel holds about 83,000 compounds, 20% with a hit somewhere; the sample as a whole holds those more often.
Measured growth, listed per entry for reference.
State the answer as a number, implicitly in %.

Before answering, review these 4 worked examples.
O=C(NC(Cc1nnc2n(Cc3ccccc3)c(=O)c3c4c(sc3n12)CCCC4)c1ccccc1)c1ccccc1 (configuration not stated); 74.6
NS(=O)(=O)c1ccc(-c2cc(-c3nnc(SCC(=O)Nc4ccc(C(=O)/C=C/c5ccc(Cl)cc5)cc4)n3-c3ccccc3)c3ccccc3n2)cc1; 93.1
COc1ccc(C(=O)Cn2c(C(=O)c3ccc(OC)cc3)nc3ccccc32)cc1; 45.2
COc1ccc(/C=C/c2c(C(=O)/C=C/c3ccccc3)c(C)nc3ccccc23)cc1; 66.2

// next entry
Query: Consider the compound shown here: COc1cc(-c2nc3cc(Cl)c(Cl)cc3[nH]2)ccc1OCC(=O)N=Nc1c(O)[nH]c2ccc(Cl)cc12 What is its recorded growth?
Response: -19.7

====

# Tested on: SK-MEL-2 melanoma
# assay remarks: NCI-60 one-dose screen, 48 h (100 = growth as untreated, 0 = no growth, -100 = all killed)
# reported conditions: 10 µM unless noted
About 83,000 compounds went through this panel and 20% of them were active in at least one assay; those are over-represented in the sample as a whole.
parameter measured: growth (%)
State the answer as a number, implicitly in %.

Before answering, review these 8 worked examples.
Cc1ccc(/C=C(\C#N)n2nnc3cc(F)c(F)cc32)cc1; 14.8
O=C1/C=C/[C@@H](O)[C@@H]2C[C@@H](O)C[C@H]2/C=C/CCC[C@H](CCO)O1; -20.3
COc1ccc(C2=CC(c3cc(OC)c(OC)c(OC)c3)n3ncnc3N2)cc1 (configuration not stated); 24
CCOC(=O)c1ccccc1-c1c2ccc(=[N+](C)C)cc-2oc2cc(N(C)C)ccc12; 4.77
CC[C@]12C=CCN3CC[C@@]4(c5ccc(OC)cc5N(C)[C@H]4[C@@](O)(C(=O)OC)[C@@H]1OC(=O)CCC[P+](c1ccccc1)(c1ccccc1)c1ccccc1)[C@@H]32; -65.3
N=C(N)c1ccc(-c2ccc(-c3cc(Cl)cc(Cl)c3)s2)nc1; 109
O=C1/C(=C\c2ccccn2)c2ccccc2N1c1c(Cl)cccc1Cl; 48.8
Cc1ccc(CNc2c3ccccc3nc3ccccc23)cc1; 42.7

Query: Consider the compound shown here: O=C1C(Nc2ccccn2)=C(I)C(=O)c2ncccc21 What is its recorded growth?
Response: -53.7

Query: Consider the compound shown here: COc1ccc2c(c1)c(-c1nc(-c3c[nH]c4ncccc34)cs1)cn2CCO What is its recorded growth?
Response: 48.7

Query: Consider the compound shown here: N=c1c(S(=O)(=O)c2ccccc2)cc2c(=O)n3ccccc3nc2n1CC1CCCO1 (configuration not stated) What is its recorded growth?
Response: 112

Query: Consider the compound shown here: CCN1CCN(c2cc(C)nc(N(CCNc3ccnc4cc(Cl)ccc34)Cc3ccc4c(c3)OCO4)n2)CC1 What is its recorded growth?
Response: -82.8

====

Measured growth, listed per entry for reference.
# Tested on: HOP-62 NSCLC
# assay remarks: NCI-60 one-dose screen, 48 h (100 = growth as untreated, 0 = no growth, -100 = all killed)
# reported conditions: 10 µM unless noted
This is part of a sample that, as a whole, favours compounds with a hit. Of some 83,000 tested, about 20% had one in any assay. Calls of active or inactive are those of the source. The calls were made as follows: active = growth percent below 10; inactive = the rest.

Before answering, review these 2 worked examples.
Cc1ccc(/C=C/C(=O)c2ccc(-n3cc(CN4CCN(c5cc6c(cc5F)c(=O)c(C(=O)O)cn6C5CC5)CC4)nn3)cc2)cc1; 81.3% (inactive)
CN1CCN(C(=S)SCCCCOc2cc(=O)oc3ccccc23)CC1; 79.6% (inactive)

Query: Consider the compound shown here: Cc1ccc(S(=O)(=O)N2CCC(=O)c3ccccc32)cc1 What is its recorded growth?
Response: 80.8% (inactive)

====

# Test system: HCT-116 colon
# assay remarks: NCI-60 one-dose screen, 48 h (100 = growth as untreated, 0 = no growth, -100 = all killed)
# reported conditions: 10 µM unless noted
Compounds without any hit were thinned out: in the full panel of roughly 83,000, 20% have a hit.
parameter measured: growth (%)
State the answer as a number, implicitly in %.

Before answering, review these 3 worked examples.
CN(CCC(=O)c1ccccc1)CCC(=O)c1ccccc1; 93.3
CCOc1c(OC)cc2c(c1O)C(=O)N[C@@H]1[C@@H](O)[C@@H](O)[C@H](O)C[C@@H]21; 104
NC1(CO)COC(c2ccccc2)OC1 (configuration not stated); 115

Query: Value wanted: growth (HCT-116 colon) of entry Cc1nc2c(c(=O)[nH]1)C(c1ccccc1)c1ccc3ccccc3c1O2 (configuration not stated)
Response: 21.3

====

# System: MDA-MB-435 melanoma
# assay remarks: NCI-60 one-dose screen, 48 h
# reported conditions: 10 µM unless noted
Compounds without any hit were thinned out: in the full panel of roughly 83,000, 20% have a hit. Calls of active or inactive are those of the source. Rule for the calls: active = growth percent below 10; inactive = the rest.
Thanks in advance; please answer with one of these: active, inactive

Please review the entries below; each comes with its answer.
CC1(C)C(N)=Nc2cc(OCCCN3Cc4ccccc4C3)c(OCC3CC3)cc21; inactive
Cc1ccc(Cl)cc1NC(=O)c1sc2nc3c(cc2c1N)C(=O)CCC3; active

Query: Dear all, I need the recorded test outcome for Cc1cccc(Oc2ccc(Nc3ncnc4ccc(NC(=O)CN5CCN(C)CC5)cc34)cc2Cl)c1 , thank you.
Response: active

Query: Dear all, I need the recorded test outcome for CN1CCN(CCCOc2cccc3nc(Nc4ccc(F)c(F)c4)ccc23)CC1 , thank you.
Response: active

Query: Dear all, I need the recorded test outcome for CC(=O)c1sc2sc(C(C)=O)c(C)c2c1C , thank you.
Response: inactive

Query: Dear all, I need the recorded test outcome for O=C(CSc1nc(-c2ccccc2)cc(=O)[nH]1)Nc1nc(-c2ccccc2)cs1 , thank you.
Response: inactive

Query: Dear all, I need the recorded test outcome for CCOC(=O)C1=C(C)C(Cl)=N/C1=C\c1[nH]c(Cl)c(C)c1C(=O)OCC , thank you.
Response: inactive

Query: Dear all, I need the recorded test outcome for CN1CCN(Cc2ccc(NC(=O)c3cncc(C#Cc4cnc(N)c5ccc(F)cc45)c3)cc2C(F)(F)F)CC1 , thank you.
Response: inactive

====

# Test system: SNB-19 CNS
# assay remarks: NCI-60 one-dose screen, 48 h
# reported conditions: 10 µM unless noted
This is part of a sample that, as a whole, favours compounds with a hit. Of some 83,000 tested, about 20% had one in any assay. Activity calls are given as the source filed them. The calls were made as follows: active = growth percent below 10; inactive = the rest.
Thanks in advance; please answer with one of these: active, inactive

c1ccc2c(c1)CCCc1nnc3nc4ccccc4n3c1-2; inactive
O=C(Oc1ccc(CCl)cc1)c1ccccc1; active
CCN1C(=O)N(CC)C2C1NN=c1s/c(=C3\C(=O)N(CC(C)C)c4ccccc43)c(=O)n12 (configuration not stated); inactive
O=S(=O)(Nc1cc(Sc2cccc3cccnc23)c(O)c2ccccc12)c1ccccc1; inactive
Cc1ccc(-c2nc(N3CCNCC3)c3oc(-c4ccc(C)cc4)nc3n2)cc1; inactive

Query: Dear all, I need the recorded test outcome for COc1ccc(C[n+]2c3ccccc3n3c4ccc(N)cc4ccc32)c(OC)c1OC , thank you.
Response: inactive

Query: Dear all, I need the recorded test outcome for Cc1ccc2nc(/C(C#N)=C(/CCCO)NC(Cc3ccccc3)C(=O)OCc3ccccc3)[nH]c(=O)c2c1 (configuration not stated) , thank you.
Response: inactive

Query: Dear all, I need the recorded test outcome for CCN1CCN(CC(=O)Nc2nc3ccc(NCc4ccc(F)cc4)cc3s2)CC1 , thank you.
Response: inactive

Query: Dear all, I need the recorded test outcome for CCOc1ccc(-n2nc(C(=O)NCc3ccccc3OC)nc2-c2cc(OC)c(OC)c(OC)c2)cc1 , thank you.
Response: inactive

Query: Dear all, I need the recorded test outcome for COc1ccc2c(c1)/C(=N/c1n[nH]c(=S)s1)C(=O)N2 , thank you.
Response: inactive

Query: Dear all, I need the recorded test outcome for COc1cccc(Nc2ncnc3cc(NC(=O)CCl)ccc23)c1 , thank you.
Response: active

====

# Tested on: HOP-92 NSCLC
# assay remarks: NCI-60 one-dose screen, 48 h
# reported conditions: 10 µM unless noted
About 83,000 compounds went through this panel and 20% of them were active in at least one assay; those are over-represented in the sample as a whole. Active and inactive are the calls of the source. How the source made its calls: active means growth percent below 10; inactive means the rest.
Thanks in advance; please answer with one of these: True = active, False = inactive

Please review the entries below; each comes with its answer.
CCN1CCN(C(=O)[C@]23CC[C@@H](C)[C@H](C)[C@@H]2C2=CC[C@@H]4[C@@]5(C)C/C(=C/c6cccnc6)C(=O)C(C)(C)[C@@H]5CC[C@@]4(C)[C@]2(C)CC3)CC1; False
O=C(CN1CCCCCC1)Nc1nc2ccc(NCc3ccc(Cl)cc3)cc2s1; False
CCOC(=O)c1c(C)nc2c(c1N)CC(=O)N2Cc1ccc(OC)cc1; True
CCOC(=O)c1c(C)nc2c(c1N)/C(=C/c1ccc(OC)cc1)C(=O)N2Cc1ccccc1; False
c1ccc2c(c1)CCCc1nnc3nc4ccccc4n3c1-2; True
N[C@H]1CCC[C@@H]1NCCCCN1C(=O)c2cccc3cc([N+](=O)[O-])cc(c23)C1=O; False
O=C(CCCCCNC(=O)c1cc(=O)c(O)co1)Nc1ccccc1; False
COc1ccc(Oc2nc(Nc3ccc(N4CCOCC4)cc3)ncc2NC(=O)Nc2cc(OC)cc(OC)c2)cc1; True

Query: Dear all, I need the recorded test outcome for CC1CCN(C(=S)SCC(=O)NC(=O)c2ccccc2)CC1 , thank you.
Response: False

Query: Dear all, I need the recorded test outcome for O=P(O)(O)OCC1OC(n2cnc3c(NCc4ccco4)ncnc32)C(O)C1O (stereo unspecified) , thank you.
Response: True

Query: Dear all, I need the recorded test outcome for C=CC(=O)Nc1ccc(Oc2nccc(Nc3nnc(-c4ccc(C)cc4)s3)n2)cc1 , thank you.
Response: False
